Origin of values: paper PMC6273140

assay: Cell viability by the Alamar Blue assay (cytotoxicity); assay type: cell-based; conditions: mouse, RAW 264.7, 24 h, mean ± SD, read-out: Cytotoxicity (LC50 in μM) (n = 8)
MEASURED PROPERTY: CC50 at 24 h (µM)
Answers are plain numbers, in µM.

{"MOLECULE": "C=C(C)[C@@H]1CC[C@]2(C(=O)O)CC[C@]3(C)[C@H](CC[C@@H]4[C@@]5(C)C[C@@H](OC(=O)/C=C\\c6ccc(O)cc6)[C@H](O)C(C)(C)[C@@H]5CC[C@]43C)[C@@H]12 [Compound 4, cis-coumaroyl alphitolic acid]", "CC50 at 24 h [µM]": 8}

# input for lookup
Please list CC50 at 24 h recorded for the molecule C=C(C)[C@@H]1CC[C@]2(C(=O)O)CC[C@]3(C)[C@H](CC[C@@H]4[C@@]5(C)[C@@H](C(=O)O)[C@H](OC(C)=O)C(C)(C)[C@@H]5CC[C@]43C)C12 (some centres unmarked) [Compound 6, emmolic acid acetate]
13.1
